- target: CETP (Homo sapiens)
- Sequence (P11597 18-493): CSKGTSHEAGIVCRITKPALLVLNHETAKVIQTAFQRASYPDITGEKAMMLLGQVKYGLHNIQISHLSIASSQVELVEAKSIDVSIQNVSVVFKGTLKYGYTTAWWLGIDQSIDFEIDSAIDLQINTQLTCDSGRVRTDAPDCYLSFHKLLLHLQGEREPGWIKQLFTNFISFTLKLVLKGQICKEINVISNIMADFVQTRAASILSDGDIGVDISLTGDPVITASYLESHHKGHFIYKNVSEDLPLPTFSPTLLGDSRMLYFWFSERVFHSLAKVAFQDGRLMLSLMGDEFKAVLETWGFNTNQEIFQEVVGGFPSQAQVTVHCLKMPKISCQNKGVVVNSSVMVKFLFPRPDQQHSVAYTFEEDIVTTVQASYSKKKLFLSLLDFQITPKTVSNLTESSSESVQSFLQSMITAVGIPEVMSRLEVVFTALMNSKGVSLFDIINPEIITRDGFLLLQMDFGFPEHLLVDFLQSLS
- assay.procedure: Assay of CETP inhibition using purified components (reconstituted buffer assay): transfer of [3H]CE from HDL to LDL
- Format: biochemical
- Design: made in house; host or cells: CHO cells (serum-free conditioned medium)
- condition.context: 2 hours at 37°C
Assignment: determine reported IC50 for the given compounds.

INSERT INTO results (compound, recorded_endpoint, result) VALUES
  ('OC(CN(Cc1cccc(OC(F)(F)C(F)F)c1)c1cccc(Oc2cccc(C(F)(F)F)c2F)c1)C(F)(F)F (stereo not shown) [compound 227]', 'IC50', '0.13 µM'),
  ('Cc1cc(Oc2cccc(N(Cc3cccc(OC(F)(F)C(F)F)c3)CC(O)C(F)(F)F)c2)ccc1F (stereo not shown) [compound 242]', 'IC50', '0.076 µM'),
  ('Cc1ccc(N(Cc2cccc(F)c2)CC(O)C(F)(F)F)cc1 (stereo not shown) [compound 32]', 'IC50', '> 100 µM'),
  ('Cc1ccc(Oc2cccc(N(Cc3cccc(SC(F)(F)F)c3)CC(O)C(F)(F)F)c2)cc1 (stereo not shown) [compound 637]', 'IC50', '0.47 µM'),
  ('OC(CN(Cc1cccc(OC(F)(F)C(F)F)c1)c1cccc(Oc2cccc(F)c2)c1)C(F)(F)F (stereo not shown) [compound 240]', 'IC50', '0.27 µM'),
  ('Cc1cccc(CN(CC(O)C(F)(F)F)c2cccc(F)c2)c1 (stereo not shown) [compound 49]', 'IC50', '> 100 µM'),
  ('OC(CN(Cc1ccc(Cl)s1)c1cccc(OC(F)(F)F)c1)C(F)(F)F (stereo not shown) [compound 346]', 'IC50', '7.7 µM'),
  ('CCCOc1cccc(CN(CC(O)C(F)(F)F)c2cccc(Oc3ccc(F)cc3)c2)c1 (stereo not shown) [compound 648]', 'IC50', '0.83 µM'),
  ('OC(CN(Cc1cccc(OC(F)(F)C(F)F)c1)c1cccc(OCCN2CCCC2)c1)C(F)(F)F (stereo not shown) [compound 498]', 'IC50', '> 50 µM'),
  ('Cc1ccc(Oc2cccc(N(Cc3cccc(OC(F)(F)C(F)F)c3)CC(O)C(F)(F)F)c2)cn1 (stereo not shown) [compound 282]', 'IC50', '0.84 µM');

Dear reader, for each entry below, please note its IC50.
1. Oc1cccc(CN(CC(O)C(F)(F)F)c2cccc(Oc3ccc(F)cc3)c2)c1 (stereo not shown) [compound 635]
2. N#Cc1ccc(Oc2cccc(N(Cc3cccc(OC(F)(F)C(F)F)c3)CC(O)C(F)(F)F)c2)cc1 (stereo not shown) [compound 657]
3. CCCCOc1cccc(CN(CC(O)C(F)(F)F)c2cccc(Oc3ccc(F)cc3)c2)c1 (stereo not shown) [compound 649]
4. OC(CN(Cc1cccc(SC(F)(F)F)c1)c1cccc(Oc2ccc(F)cc2)c1)C(F)(F)F (stereo not shown) [compound 636]
5. OC(CN(Cc1cccc(OC(F)(F)C(F)F)c1)c1cccc(-c2ccccc2)c1)C(F)(F)F (stereo not shown) [compound 564]
6. COc1cc2c(cc1N(Cc1cccc(OC(F)(F)F)c1)CC(O)C(F)(F)F)oc1ccccc12 (stereo not shown) [compound 698]

80 µM
1 µM
4.9 µM
0.39 µM
2.5 µM
100 µM
